Molecular target: T1, human IL-36R on cells (human, UniProt Q9HB29 20-575)
T1 construct: whole, on cells; also called full-length human IL-36R on HEK293 transfectants; HEK-IL-36R cells
T1 sequence (looked up): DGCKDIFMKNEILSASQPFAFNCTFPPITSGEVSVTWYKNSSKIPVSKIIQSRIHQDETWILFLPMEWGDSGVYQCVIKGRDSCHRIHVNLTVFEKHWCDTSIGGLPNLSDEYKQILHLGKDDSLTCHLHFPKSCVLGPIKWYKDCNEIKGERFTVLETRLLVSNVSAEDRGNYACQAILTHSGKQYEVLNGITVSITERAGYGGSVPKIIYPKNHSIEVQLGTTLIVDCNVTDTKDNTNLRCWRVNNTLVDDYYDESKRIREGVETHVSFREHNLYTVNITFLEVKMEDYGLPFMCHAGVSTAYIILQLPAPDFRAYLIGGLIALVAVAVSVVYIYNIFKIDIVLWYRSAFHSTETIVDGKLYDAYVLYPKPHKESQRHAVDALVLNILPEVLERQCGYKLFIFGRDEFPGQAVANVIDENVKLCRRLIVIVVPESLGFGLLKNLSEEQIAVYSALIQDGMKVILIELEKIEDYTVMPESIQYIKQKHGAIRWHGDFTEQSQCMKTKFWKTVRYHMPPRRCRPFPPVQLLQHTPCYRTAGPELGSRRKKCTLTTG
Assay: flow cytometry, HEK293 cells transfected with full-length human IL-36R
RESULT_TYPE: pEC50
FYI, pEC50 means -log10 of a concentration in mol per litre.

Take a look at these entries with their results.
[
  {
    "BINDER": "antibody 81B4 (antibody, V domains shown, Mouse monoclonal from hybridoma; also called 81B4E11; Mouse 81B4) VH: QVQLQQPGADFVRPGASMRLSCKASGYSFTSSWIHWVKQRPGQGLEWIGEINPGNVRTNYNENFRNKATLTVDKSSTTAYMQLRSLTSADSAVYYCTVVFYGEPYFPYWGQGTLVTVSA VL: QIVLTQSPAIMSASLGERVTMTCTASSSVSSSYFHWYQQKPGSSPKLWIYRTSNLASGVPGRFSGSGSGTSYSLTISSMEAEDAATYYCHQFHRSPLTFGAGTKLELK",
    "pEC50": 9.52
  },
  {
    "BINDER": "antibody 76E10 (antibody, V domains shown, Mouse monoclonal from hybridoma; also called 76E10E8) VH: QVQLKESGPVLVAPSQSLSITCTVSGFSLTNYGVHWVRQPPGKGLEWLGVIWPVGSTNYNSALMSRLSIHKDNSKSQVFLRMNSLQTDDTAIYYCAKMDWDDFFDYWGQGTTLTVSS VL: DIVMTQSQKFMSATVGGRVNITCKASQNVGRAVAWYQQKPGQSPKLLTHSASNRYTGVPDRFTGSGSGTDFTLTITNMQSEDLADYFCQQYSSYPLTFGAGTKLDLK",
    "pEC50": 9.37
  }
]

In plain terms, antibody 78C8 (antibody, V domains shown, Mouse monoclonal from hybridoma; also called 78C8D1; Mouse 78C8) VH: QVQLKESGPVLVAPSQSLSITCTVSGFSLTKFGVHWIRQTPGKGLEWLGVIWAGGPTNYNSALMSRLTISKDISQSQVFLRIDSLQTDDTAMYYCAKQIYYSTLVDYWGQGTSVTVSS VL: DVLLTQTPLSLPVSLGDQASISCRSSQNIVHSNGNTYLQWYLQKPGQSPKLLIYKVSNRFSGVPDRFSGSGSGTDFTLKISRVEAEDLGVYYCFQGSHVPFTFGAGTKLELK has a documented pEC50 of 9.28
